Measured values drawn from paper PMC4984800 for this set.

# Experiment: First-in-human trial: pharmacokinetics in plasma and urine
# Assay type: in vivo
# Condition Details: human, plasma, oral, 120 mg, Schedule 1, 120 mg, Day 1, N=14; median (range); read-out: T1/2 (converted)
Measurement Type: half-life (h)

{"Structure String": "COc1cccc2cc(-c3nc([C@H]4CC[C@H](C(=O)O)CC4)n4ncnc(N)c34)[nH]c12", "Observed Value": 10.2}

====

# Experiment: First-in-human trial: pharmacokinetics in plasma and urine
# Type: in vivo
# Condition Details: human, plasma, oral, patients; range over groups; read-out: half-life, range

{"Structure String": "COc1cccc2cc(-c3nc([C@H]4CC[C@H](C(=O)O)CC4)n4ncnc(N)c34)[nH]c12", "half-life": "8 to 25 h"}

====

# Experiment: First-in-human trial: pharmacokinetics in plasma and urine
# Type: in vivo
# Condition Details: human, plasma, oral, 50 mg, Schedule 3, 50 mg, Day 1, N=3; median (range)

{"Molecule": "COc1cccc2cc(-c3nc([C@H]4CC[C@H](C(=O)O)CC4)n4ncnc(N)c34)[nH]c12 [OSI-027]", "AUC(0-inf) (µg·h/mL)": 46.2}

====

# Experiment: First-in-human trial: pharmacokinetics in plasma and urine
# Format: in vivo
# Condition Details: human, plasma, oral, 40 mg, Schedule 3, 40mg, Day 22, N=4; median (range); read-out: AUC24hr

{"Molecule": "COc1cccc2cc(-c3nc([C@H]4CC[C@H](C(=O)O)CC4)n4ncnc(N)c34)[nH]c12 [OSI-027]", "AUC(0-t), ng·h/mL": 50100}

====

# Experiment: First-in-human trial: pharmacokinetics in plasma and urine
# Assay type: in vivo
# Condition Details: human, plasma, oral, 10 mg, Schedule 3, 10 mg, Day 22, N=3; median (range); read-out: AUC24hr
Measurement Type: AUC(0-t) (ng·h/mL)

{"Structure String": "COc1cccc2cc(-c3nc([C@H]4CC[C@H](C(=O)O)CC4)n4ncnc(N)c34)[nH]c12", "Measurement Type": "AUC(0-t)", "Observed Value": 3720}

====

# Experiment: First-in-human trial: pharmacokinetics in plasma and urine
# Format: in vivo
# Condition Details: human, plasma, oral, 10 mg, Schedule 1, 10 mg, Day 3, N=6; median (range); read-out: T1/2 (converted)

{"Structure String": "COc1cccc2cc(-c3nc([C@H]4CC[C@H](C(=O)O)CC4)n4ncnc(N)c34)[nH]c12", "half-life / min": 464}

====

# Experiment: First-in-human trial: pharmacokinetics in plasma and urine
# Type: in vivo
# Condition Details: human, plasma, oral, 10 mg, Schedule 1, 10 mg, Day 1, N=6; median (range)

{"Molecule": "COc1cccc2cc(-c3nc([C@H]4CC[C@H](C(=O)O)CC4)n4ncnc(N)c34)[nH]c12 [OSI-027]", "Unit Abbrev": "ng·h/mL", "AUC(0-inf)": 5130}

====

# Experiment: First-in-human trial: pharmacokinetics in plasma and urine
# Format: in vivo
# Condition Details: human, plasma, oral, 90 mg, Schedule 1, 90 mg, Day 3, N=14; median (range); read-out: T1/2 (converted)

{"Molecule": "COc1cccc2cc(-c3nc([C@H]4CC[C@H](C(=O)O)CC4)n4ncnc(N)c34)[nH]c12 [OSI-027]", "half-life / h": 12}
